- Method Description: qHTS assay to identify small molecule agonists of the farnesoid-X-receptor (FXR) signaling pathway - cell viability counter screen (AID 743218); note: nearly all actives have a fitted effect of over 45% in size
- Condition Description: FXR-bla HEK293T viability, CellTiter-Glo luminescence, 16 h; series mostly up to 62.6 µM
Records with an inconclusive call do not appear. Activity calls are given as the source filed them. Calls come from the whole dose curve; as a rule, active = well fitted cell-killing curve with a large enough effect in the repeat runs; inconclusive = weak or mixed curves, or effect the other way; inactive = no such curve, though single readings can be large or run the other way.
Outcome (select one): Yes = active, No = inactive

Some solved entries appear below for comparison.
molecule=CCCCc1c(C)nc(NCC)nc1OS(=O)(=O)N(C)C class_label=No
molecule=O=C(O)C(F)(F)C(F)(F)C(F)(F)C(F)(F)C(F)(F)C(F)(F)C(F)(F)C(F)(F)C(F)(F)C(F)(F)F class_label=No
molecule=O=C(NC(=O)c1c(F)cccc1F)Nc1cc(Cl)c(Oc2ncc(C(F)(F)F)cc2Cl)c(Cl)c1 class_label=Yes
molecule=Nc1nc(N)nc(N)n1 class_label=No
molecule=IC(I)=C(I)I class_label=Yes

Request: For Cc1ccc2ccccc2c1 , what call appears in the results of this test?
Response: No

Request: Hello, I am checking results. What call was entered for NS(=O)(=O)C(F)(F)C(F)(F)C(F)(F)C(F)(F)C(F)(F)C(F)(F)C(F)(F)C(F)(F)F ?
Response: Yes

Request: Dear colleague, could you share the recorded outcome for CC(C)(OO)c1ccccc1 when you have a moment?
Response: No

Request: How did this test come out for CC[C@H]1C[C@H]2[C@@H]3CCC4=CC(=O)CC[C@@H]4[C@H]3CC[C@]2(C)[C@H]1O ?
Response: No

Request: Recorded test call requested for Cl/C=C\Cl
Response: No

Request: Please let me know the test result on file for CS/C(C)=N/OC(=O)N(C)SN(C)C(=O)O/N=C(\C)SC .
Response: No

Request: Hello, I am checking results. What call was entered for c1ccc(CN2CCNCC2)cc1 ?
Response: No

====

- Method Description: qHTS assay to identify small molecule agonists of the androgen receptor (AR) signaling pathway in the presence of an antagonist - cell viability counter screen (AID 1259379); note: nearly all actives have a fitted effect of over 25% in size; note: potency is the fitted concentration of half-maximal effect
- Condition Description: MDA-kb2 viability, CellTiter-Fluor, 16 h; series mostly up to 92.4 µM
Results filed as inconclusive are left out. Active and inactive are the calls of the source. Calls come from the whole dose curve; as a rule, active = well fitted cell-killing curve with a large enough effect in the repeat runs; inconclusive = weak or mixed curves, or effect the other way; inactive = flat fitted curve, though single readings scatter.
Metric: Potency

Below, 4 compounds whose answers are already recorded.
compound="CC1Sc2c(C(=O)O)c(=O)c3cc(F)c(N4CCNCC4)cc3n21 (stereo unspecified)" metric=Potency value_reported=inactive
compound=N#C/C(N)=C(/N)C#N metric=Potency value_reported=inactive
compound="CC1C(=O)C[C@]2(C(C)C)C[C@H]12 (stereo partly specified)" metric=Potency value_reported=inactive
compound=O=S1(=O)OC(c2cc(Br)c(O)c(Br)c2)(c2cc(Br)c(O)c(Br)c2)c2ccccc21 metric=Potency value_reported="25 µM (active)"

Per the records, this compound ( Cc1c(F)c(F)c(COC(=O)C2C(/C=C(\Cl)C(F)(F)F)C2(C)C)c(F)c1F (stereo unspecified) ) has Potency equal to inactive

Recorded Potency (compound CNP(=O)(OC)Oc1ccc(C(C)(C)C)cc1Cl (stereo unspecified) ): inactive

====

- Method Description: qHTS assay to identify small molecule agonists of the hypoxia (HIF-1) signaling pathway - cell viability counter screen (AID 1224844); note: nearly all actives have a fitted effect of over 50% in size
- Condition Description: HRE-bla ME-180 viability, CellTiter-Glo luminescence, 17 h; series mostly up to 76.8 µM
Results filed as inconclusive are left out. Active and inactive are the calls of the source. Calls come from the whole dose curve.
Valid outcomes are listed here; reply with one: 1.0 = active, 0.0 = inactive

Please review the entries below; each comes with its answer.
compound=N#C/C(N)=C(/N)C#N class_label=0.0
compound=O=NN1CCCCCC1 class_label=0.0
compound=CCOC(=O)COc1cc(-c2nn(C)c(OC(F)F)c2Cl)c(F)cc1Cl class_label=0.0
compound=CC(C)(C)c1cc([N+](=O)[O-])cc([N+](=O)[O-])c1O class_label=0.0
compound=C/C(=C\c1ccccc1)[N+](=O)[O-] class_label=1.0

Request: Per the records of this test, what outcome belongs to CCCCN=C=O ?
Response: 0.0

Request: GET /call?item= C=CC(=O)OCCCCO returns the recorded outcome of this test.
Response: 0.0

Request: So what was the verdict on CC(C)(CCl)C(=O)Cl in this test?
Response: 0.0

Request: Which outcome was entered for the compound c1ccc(CN2CCNCC2)cc1 in this test?
Response: 0.0

Request: Call for entry O=C(Nc1ccccc1)Nc1ccnc(Cl)c1 :
Response: 0.0

Request: Outcome? COP(=S)(OC)Oc1cc(Cl)c(I)cc1Cl
Response: 0.0

Request: Tell me the recorded outcome of this test for c1cc2ccc3cccc4ccc(c1)c2c34 .
Response: 0.0

====

- Experimental System: Cytochrome P450 2C19 (Homo sapiens) (UniProt P33261)
- Sequence (P33261 whole entry, looked up): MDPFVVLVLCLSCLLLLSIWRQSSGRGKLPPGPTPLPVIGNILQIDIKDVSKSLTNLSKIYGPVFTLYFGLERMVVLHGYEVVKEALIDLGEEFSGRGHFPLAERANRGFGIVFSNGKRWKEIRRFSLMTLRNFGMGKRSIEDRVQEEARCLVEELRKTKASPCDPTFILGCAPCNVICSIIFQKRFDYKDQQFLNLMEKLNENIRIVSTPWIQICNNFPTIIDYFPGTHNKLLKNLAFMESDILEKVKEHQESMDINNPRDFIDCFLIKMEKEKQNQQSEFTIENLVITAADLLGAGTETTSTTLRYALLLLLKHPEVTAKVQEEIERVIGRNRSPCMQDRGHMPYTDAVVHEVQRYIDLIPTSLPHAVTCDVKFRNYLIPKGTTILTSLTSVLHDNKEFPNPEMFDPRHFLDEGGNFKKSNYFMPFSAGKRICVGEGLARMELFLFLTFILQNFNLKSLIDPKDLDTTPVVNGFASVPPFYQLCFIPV
- Method Description: Cytochrome P450 Family 2 Subfamily C Member 19 (CYP2C19) small molecule antagonists: luciferase reporter qHTS assay (AID 1671197); note: nearly all actives have a fitted effect of over 65% in size
- Condition Description: P450-Glo CYP2C19 enzyme, luciferin luminescence, 1 h; series mostly up to 115 µM
Results filed as inconclusive are left out. Calls of active or inactive are those of the source. Calls come from the whole dose curve; as a rule, active = well fitted inhibition curve with a large enough effect in the repeat runs; inconclusive = weak or mixed curves; inactive = no such curve, though single readings can be large or run the other way.
Please state which outcome applies, choosing from active, inactive

The examples below pair each entry with its known result.
record_smiles=COP(=S)(OC)Oc1ccc([N+](=O)[O-])cc1Cl class_label=active
record_smiles=Oc1ccc(Cl)c(Cl)c1Cl class_label=active
record_smiles=c1ccc(CN2CCNCC2)cc1 class_label=inactive
record_smiles=CCCCCCCCCC(=O)O[C@H]1CC[C@H]2[C@@H]3CCC4=CC(=O)CC[C@@H]4[C@H]3CC[C@]12C class_label=active
record_smiles=C=CC(=O)NCNC(=O)C=C class_label=inactive
record_smiles=O=NN1CCNCC1 class_label=active

Request: What outcome does the record of this test show for N#CCc1ccccc1 ?
Response: inactive

====

- Method Description: A CellTox Green Cytotoxicity Assay to monitor cytotoxicity in HepG2 cells - 24 hour (AID 1224878); note: nearly all actives have a fitted effect of over 45% in size
- Condition Description: CellTox Green fluorescence; series mostly up to 76.8 µM
Inconclusive results are not listed. Activity calls are given as the source filed them. The call rests on the fitted dose curve; in most records, active means well fitted activation curve with a large enough effect in the repeat runs; inconclusive means weak or mixed curves; inactive means flat fitted curve, though single readings scatter.
Answer with one of the outcomes given here: 1.0 (active), 0.0 (inactive)

compound=O=S(=O)(O)C(F)(F)C(F)(F)C(F)(F)C(F)(F)F class_label=0.0
compound=Cn1sc(Cl)cc1=O class_label=0.0
compound=COC(C)(C)CCC[C@H](C)C/C=C/C(C)=C/C(=O)OC(C)C class_label=0.0

Request: Dear all, I need the recorded test outcome for C=CC(=O)NCNC(=O)C=C , thank you.
Response: 0.0

Request: Any idea what this test logged for COC(N)=O ?
Response: 0.0

Request: Name the outcome recorded for CN(N=O)c1ccc([N+](=O)[O-])cc1 in the assay.
Response: 1.0

Request: For CC1CC(CC2CCC(N)C(C)C2)CCC1N (stereo not given) , which call appears in the assay record?
Response: 0.0

Request: Could you please tell me the result logged for CC(=O)C(C)(C)C in this assay?
Response: 0.0

Request: I'd appreciate the recorded outcome for NCCCNCCCN from this test.
Response: 0.0

Request: Would you mind telling me which call this test gave ClC=C(Cl)Cl ?
Response: 0.0

Request: What was the test verdict on CC(C)N(CCC(C(N)=O)(c1ccccc1)c1ccccn1)C(C)C (stereo not given) ?
Response: 0.0

Request: Name the outcome recorded for [CH3][Sn]([CH3])([Cl])[Cl] in the assay.
Response: 0.0

Request: What classification did Clc1cc(Cl)c(Cl)c(Cl)c1 end up with in this test?
Response: 0.0

Request: Name the outcome recorded for O=NN1CCNCC1 in the assay.
Response: 0.0

Request: Please state the recorded outcome for this compound: CN1C(=O)C(O)N=C(c2ccccc2)c2cc(Cl)ccc21 (stereo not given)
Response: 0.0

Request: Given CC(=O)c1cc2c(cc1C)C(C)(C)C(C)CC2(C)C (stereo not given) , state the outcome it received in this test.
Response: 1.0

Request: Field: outcome | Entry: CC(C)=CCOc1c2occc2cc2ccc(=O)oc12
Response: 0.0

Request: Recorded test call requested for CC1C(=O)C[C@]2(C(C)C)C[C@H]12 (stereo not given in full)
Response: 0.0

Request: In this assay, the call recorded for CCCCc1c(C)nc(NCC)nc1OS(=O)(=O)N(C)C was what?
Response: 0.0

Request: Any idea what this test logged for II ?
Response: 1.0

Request: For O=C(C(Cl)(Cl)Cl)C(Cl)(Cl)Cl , what call appears in the results of this test?
Response: 0.0

Request: Recorded test call requested for O=C(NCc1cccnc1)Nc1ccc([N+](=O)[O-])cc1
Response: 0.0

Request: Outcome logged for Cc1cc(=O)[nH]o1 in this assay:
Response: 0.0

Request: What was the test verdict on c1ccc(C2CC2)c(OCC2=NCCN2)c1 ?
Response: 0.0

Request: Just curious, what result did O=C(NC(=O)c1c(F)cccc1F)Nc1cc(Cl)c(Oc2ncc(C(F)(F)F)cc2Cl)c(Cl)c1 get here?
Response: 0.0

Request: GET /call?item= C[N+](C)(C)CCCl returns the recorded outcome of this test.
Response: 0.0

Request: Hi, sorry to bother you, what did the test record for S=C=NCc1ccccc1 ?
Response: 0.0

# credit: PubChem BioAssay (Tox21)
